This collection of values is drawn from paper PMC3789257.

measured_on: T-p53-Y220C (Homo sapiens, UniProt P04637, M133L/N239Y/N268D/V203A/Y220C)
test_name: 1H/15N-HSQC NMR titration
assay_conditions: 20 °C, 75 μM protein
value_kind: Kd (µM)

| smiles_text | measured_on | value_kind | recorded_measurement |
| --- | --- | --- | --- |
| CN1CCC(N(C)Cc2cc(I)cc(I)c2O)CC1 | T-p53-Y220C (Homo sapiens, UniProt P04637, M133L/N239Y/N268D/V203A/Y220C) | Kd | 184 |
